Source listed as PubChem BioAssay AID504329.

Let's look at some compounds and their measured inhibition.
Test: H1N1 influenza NS1A inhibitors, functional cell based assay (AID 504329)
Settings: percent inhibition, at 12.5 µM, hits give high values
The whole screen tested about 340,000 compounds, of which about 1,000 (0.29%) were called active. These entries were drawn from the full list. Measured potencies and affinities stand elsewhere.

{"columns": ["COMPOUND", "inhibition"],
 "data": [
  ["COc1ccc(OCC(=O)N/N=C/c2cccc3cccnc23)cc1", "27.8% (inactive)"],
  ["COc1cccc(/C=N/NC(=O)COc2cccc3cccnc23)c1O", "-3.74% (inactive)"],
  ["CC(=O)Nc1ccc(S(=O)(=O)NC2=C(N3CCN(C)CC3)C(=O)c3ccccc3C2=O)cc1", "7.96% (inactive)"],
  ["COc1cc(/C=C(\\NC(=O)c2ccccc2)C(=O)NC(C(=O)O)c2ccccc2)cc(OC)c1OC (configuration not stated)", "2.4% (inactive)"],
  ["COc1ccc(C2CC3(CC(C)(C)NC(SC)=N3)Oc3cc(O)cc(C)c32)cc1 (configuration not stated)", "2.74% (inactive)"],
  ["Nc1nnc(SCC(=O)NCCNC(=O)CSc2nnc(N)s2)s1", "-11.3% (inactive)"],
  ["c1ccc(N2CCN(c3nc(-c4ccccn4)nc4ccccc34)CC2)cc1", "18.4% (inactive)"],
  ["CCOC(=O)C1CCN(C2=C(NS(=O)(=O)c3ccc(Br)cc3)C(=O)c3ccccc3C2=O)CC1", "27.6% (inactive)"],
  ["COc1ccc(N=c2oc3c(OC)cccc3cc2C(=O)NCc2ccco2)c(OC)c1", "10.4% (inactive)"],
  ["CN1C(=O)/C(=C2\\SC(=S)N(NC(=O)c3cccnc3)C2=O)c2ccccc21", "6.82% (inactive)"],
  ["CC1CCCN(C2=C(NS(=O)(=O)c3ccc(Cl)cc3)C(=O)c3ccccc3C2=O)C1 (configuration not stated)", "3.15% (inactive)"],
  ["CN1CCN(C2=C(Cl)C(=O)C(c3cnc(N4CCCCC4)s3)=C(Cl)C2=O)CC1", "18.9% (inactive)"],
  ["Cc1ccccc1OCC(=O)N/N=C/c1cccc2cccnc12", "11.7% (inactive)"],
  ["CN1CCN(c2nc(-c3ccccn3)nc3ccccc23)CC1", "10.9% (inactive)"],
  ["O=C(C1CCN(S(=O)(=O)c2ccccc2)CC1)N1CCCCCC1", "12.9% (inactive)"],
  ["NC(=O)C1CCN(S(=O)(=O)Cc2ccccc2Cl)CC1", "4.51% (inactive)"],
  ["C/C(=N\\Nc1nc(-c2ccccn2)nc2ccccc12)c1ccc(F)cc1", "0.16% (inactive)"],
  ["CC[n+]1c(C)sc2c3ccsc3ccc21", "2.89% (inactive)"],
  ["Oc1ccccc1-c1nc(NCc2ccco2)c2ccccc2n1", "-19.2% (inactive)"],
  ["CN(C)c1ncc(C2=C(Cl)C(=O)C(N3CCCC3)=C(Cl)C2=O)s1", "8.59% (inactive)"],
  ["CCOC(=O)C1CCCN(c2nc3ccccc3nc2NS(=O)(=O)c2ccc(C)cc2)C1 (configuration not stated)", "-25.9% (inactive)"],
  ["CCC(C)Nc1nc(-c2cccc(OC)c2O)nc2ccccc12 (configuration not stated)", "4.38% (inactive)"]
]}

----------
Assay: H1N1 influenza NS1A inhibitors, functional cell based assay (AID 504329)
Details: percent inhibition, at 12.5 µM, hits give high values
In all, about 340,000 compounds went through this assay and about 1,000 (0.29%) were called active. Not all results are given here. Entries with a potency or affinity are not part of this list.

{"columns": ["COMPOUND", "UNIT_OF_MEASURE", "inhibition"],
 "data": [
  ["COC(=O)C1=C(CSc2nccn2C)NC(=O)NC1c1cc(C)ccc1C (stereo not given)", "%", 1.93],
  ["O=C(NCc1cccnc1)c1ccccc1NS(=O)(=O)c1ccccc1", "%", -3.37],
  ["Cc1c(CNC2CCCC(C)C2C)c(C(=O)O)c(C)n1Cc1ccccc1 (stereo not given)", "%", -12.9],
  ["O=Cc1ccc(Cl)c(Cl)c1", "%", -13.3],
  ["COc1ccc2[nH]c(C(=O)NCc3ccccc3)cc2c1", "%", 15.2],
  ["C/C=C(\\C)CN1CCC(n2nccc2NC(=O)CCCc2ccccc2)CC1", "%", -5.21],
  ["CCOc1ccc(NS(=O)(=O)c2cccc(C(=O)NCC3(N(C)C)CCCCC3)c2)cc1", "%", 0.36],
  ["Cc1cc(C(=S)N2CCOCC2)c(C)n1-c1ccc(F)cc1", "%", 1.72],
  ["Cc1cccc(C)c1Nc1c(-c2ccccn2)nc2ccccn12", "%", 29.7],
  ["CC(C)C[C@H]1COCCS(=O)(=O)N1Cc1cccc(F)c1", "%", -14.6],
  ["O=C(O)c1ccc(N2CCc3ccccc32)c([N+](=O)[O-])c1", "%", 4.7],
  ["CC1(C)OC(c2ccccc2)=C/C(=C/C=Nc2ccccc2)O1", "%", -14.7],
  ["Cc1ccc(C(=O)Nc2cccc(C(=O)NCc3ccco3)c2)cc1", "%", 0.66],
  ["Cc1ccccc1C(=O)c1cccn1CC(=O)NCCCc1ccccc1", "%", -0.87],
  ["COc1ccc(N2CCN(c3nc4c(C)cccn4c(=O)c3C=C(C#N)C#N)CC2)cc1", "%", -22.9],
  ["CC(Oc1ccc(Cl)cc1Cl)c1nc(-c2ccc(NC(=O)c3ccncc3)cc2)no1 (stereo not given)", "%", 6.94],
  ["Cc1cccc(NS(=O)(=O)c2csc(C(N)=O)c2)c1", "%", 14.1],
  ["CC(C)C(=O)Nc1cccc(C(=O)Nc2cc([N+](=O)[O-])ccc2F)c1", "%", -8.76],
  ["O=C1C(Nc2ccccc2)=C(N2CCCCC2)C(=O)c2ccccc21", "%", 15.3],
  ["COc1cc(/C=N\\NC(=O)CN2CCOCC2)ccc1OCC(=O)Nc1ccc(C)c(C)c1", "%", 0.68],
  ["COC(CNC(=O)c1ccc(N2CCc3ccccc32)c([N+](=O)[O-])c1)OC", "%", 10.7],
  ["NC(=O)c1ccc(-c2c(-c3ccccc3)sc3ccccc23)cc1", "%", -3.51],
  ["COc1ccc(C(=O)NCC(=O)N2CCN(C(=O)c3ccco3)CC2)cc1", "%", -3.4],
  ["Cc1ccc(Nc2c(-c3ccccn3)nc3cc(C)ccn23)cc1", "%", 53],
  ["Cc1ccc(NC(=O)c2cc(S(=O)(=O)N3CCCC3)cn2C)cc1", "%", 2.93],
  ["Cc1ccc(C(=O)Nc2ccc(N3CCN(C(=O)c4ccco4)CC3)cc2)cc1", "%", -1.89],
  ["COCCCNC(=O)c1ccc2c3c(onc13)-c1ccccc1C2=O", "%", 17.2],
  ["Cc1nc2sccn2c(=O)c1S(=O)(=O)N1CCN(c2cccc(C(F)(F)F)c2)CC1", "%", 3.59],
  ["CC1(c2ccccc2)NC(=O)N(NC(=O)COC(=O)c2cc(Br)ccc2O)C1=O (stereo not given)", "%", -5.16],
  ["COc1cccc(OCC(=O)NNC(=O)c2ccc3ccccc3c2O)c1", "%", 3.46],
  ["COc1cc(C2SCC(=O)Nc3c2c(=O)[nH]n3C2CCCCCC2)cc(OC)c1OC (stereo not given)", "%", 3.42],
  ["O=C(O)c1cccc2cccc(-c3c4ccc(=O)c(O)c-4oc4c(O)c(O)ccc34)c12", "%", 13],
  ["O=C(N/N=C/c1ccccc1O)NC12CC3CC(CC(C3)C1)C2", "%", -3.3],
  ["O=C1Nc2ccccc2C1=O", "%", 0.1],
  ["CCOc1ccccc1Nc1cc(C)nc2ccc(C)cc12", "%", 6.09],
  ["Cc1cc(C)c2c(c1)-c1c(ssc1=S)C(C)(C)N2C(=O)CSc1nncn1C", "%", 9.33],
  ["C=CCn1c(SCC(=O)NCc2ccc3c(c2)OCO3)nnc1C1COc2ccccc2O1 (stereo not given)", "%", -2.53],
  ["O=C(NN=Cc1ccccc1O)C1CC1", "%", -17.2],
  ["CNC(=O)c1c(NC(=O)c2ccc(S(=O)(=O)N3CCCCC3C)cc2)sc2c1CCN(C)C2 (stereo not given)", "%", -4.17],
  ["COc1cc(C2C(C(C)=O)=C(O)C(=O)N2CCN(C)C)ccc1O (stereo not given)", "%", -16],
  ["Cc1ccccc1Nc1c(-c2ccccn2)nc2c(C)cccn12", "%", -0.06],
  ["O=C1c2ccccc2C(=O)c2c1ccc(O)c2O", "%", 17.2],
  ["Cc1c(NC(=O)CN2C(=O)C(=O)N(Cc3ccccc3)C2=O)c(=O)n(-c2ccccc2)n1C", "%", -4.35],
  ["Cc1c(NC(=O)NCc2ccccc2)c(=O)n(-c2ccccc2)n1C", "%", 0.65],
  ["Cc1ccc(Nc2cc(C)nc3c(C)cccc23)cc1", "%", -2.9]
]}
